Origin of the recorded values: ChEMBL document CHEMBL3860048

Assay: AUC (0 to 24 hrs) in Sprague-Dawley rat plasma at 1 mg/kg, iv up to 24 hrs by LC/MS analysis
Assay type: ADME, organism-based
Design: dose 1 mg/kg, time < 24 hr, route intravenous
Where a SMILES comes first, the peptide text is derived from it. [ ]: non-standard residue; d: D form. Phe(3-F) = N[C@@H](Cc1cccc(F)c1)C(=O)O; Arg(Me) = CNC(=N)NCCC[C@H](N)C(=O)O; azaGly = NNC(=O)O
measured.metric: AUC(0-t) at 24 h (ng·h/mL)
Your answer is read as ng·h/mL, so omit the unit and give the number.

I am curious: what AUC(0-t) at 24 h value has been reported for CNC(=N)NCCC[C@H](NC(=O)[C@H](CC(C)C)NC(=O)NNC(=O)[C@H](Cc1cccc(F)c1)NC(=O)[C@@H](NC(=O)[C@H](CC(N)=O)NC(=O)[C@H](CCC(=O)O)NC(=O)[C@@H](Cc1ccc(O)cc1)NC(C)=O)[C@@H](C)O)C(=O)N[C@@H](Cc1c[nH]c2ccccc12)C(N)=O (Ac-[dY]ENT[Phe(3-F)][azaGly]L[Arg(Me)]W-NH2) ?
1330

I am curious: what AUC(0-t) at 24 h value has been reported for CNC(=N)NCCC[C@H](NC(=O)[C@H](CC(C)C)NC(=O)NNC(=O)[C@H](Cc1ccccc1)NC(=O)[C@@H](NC(=O)[C@H](CC(N)=O)NC(=O)[C@@H]1C[C@@H](O)CN1C(=O)[C@@H](Cc1ccc(O)cc1)NC(C)=O)[C@@H](C)O)C(=O)N[C@@H](Cc1c[nH]c2ccccc12)C(N)=O [TAK-448] ?
1550

* * *

Target: KiSS-1 receptor (Rattus norvegicus, UniProt Q924U1)
Sequence (Q924U1 whole entry): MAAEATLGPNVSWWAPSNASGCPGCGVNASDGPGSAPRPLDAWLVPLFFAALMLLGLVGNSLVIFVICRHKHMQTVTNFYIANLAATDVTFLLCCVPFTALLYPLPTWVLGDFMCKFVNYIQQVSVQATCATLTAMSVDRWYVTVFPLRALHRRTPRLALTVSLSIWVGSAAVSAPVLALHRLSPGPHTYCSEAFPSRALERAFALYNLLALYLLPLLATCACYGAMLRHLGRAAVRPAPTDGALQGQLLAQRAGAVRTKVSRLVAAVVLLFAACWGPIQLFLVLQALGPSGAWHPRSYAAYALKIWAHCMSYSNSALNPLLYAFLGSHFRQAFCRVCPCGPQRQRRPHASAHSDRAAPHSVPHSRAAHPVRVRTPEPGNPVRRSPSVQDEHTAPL
Assay: Agonist activity at rat KISS1R expressed in CHO/dhfr cells assessed as increase in intracellular Ca2+ levels measured for 180 secs by Fluo 3-AM dye based FLIPR assay
Where a SMILES comes first, the peptide text is derived from it. [ ]: non-standard residue; d: D form. Phe(3-F) = N[C@@H](Cc1cccc(F)c1)C(=O)O; Arg(Me) = CNC(=N)NCCC[C@H](N)C(=O)O; Hyp = O=C(O)[C@@H]1C[C@@H](O)CN1; Thz = O=C(O)[C@@H]1CSCN1; Aze = O=C(O)[C@@H]1CCN1; azaGly = NNC(=O)O
measured.metric: pEC50
Value format note: pEC50 is -log10 of concentration (mol/L); just state the number.

Query pEC50 on KiSS-1 receptor (Rattus norvegicus, UniProt Q924U1) for CNC(=N)NCCC[C@H](NC(=O)[C@H](CC(C)C)NC(=O)NNC(=O)[C@H](Cc1ccccc1)NC(=O)[C@@H](NC(=O)[C@H](CC(N)=O)NC(=O)[C@@H]1CSCN1C(=O)[C@@H](Cc1ccc(O)cc1)NC(C)=O)[C@@H](C)O)C(=O)N[C@@H](Cc1c[nH]c2ccccc12)C(N)=O (Ac-[dY][Thz]NTF[azaGly]L[Arg(Me)]W-NH2)
7.64

Query pEC50 on KiSS-1 receptor (Rattus norvegicus, UniProt Q924U1) for CNC(=N)NCCC[C@H](NC(=O)[C@H](CC(C)C)NC(=O)NNC(=O)[C@H](Cc1cccc(F)c1)NC(=O)[C@@H](NC(=O)[C@H](CC(N)=O)NC(=O)[C@@H]1C[C@@H](O)CN1C(=O)[C@@H](Cc1ccc(O)cc1)NC(C)=O)[C@@H](C)O)C(=O)N[C@@H](Cc1c[nH]c2ccccc12)C(N)=O (Ac-[dY][Hyp]NT[Phe(3-F)][azaGly]L[Arg(Me)]W-NH2)
8.07

Query pEC50 on KiSS-1 receptor (Rattus norvegicus, UniProt Q924U1) for CNC(=N)NCCC[C@H](NC(=O)[C@H](CC(C)C)NC(=O)NNC(=O)[C@H](Cc1cccc(F)c1)NC(=O)[C@@H](NC(=O)[C@H](CC(N)=O)NC(=O)CNC(=O)[C@@H](Cc1ccc(O)cc1)NC(C)=O)[C@@H](C)O)C(=O)N[C@@H](Cc1c[nH]c2ccccc12)C(N)=O (Ac-[dY]GNT[Phe(3-F)][azaGly]L[Arg(Me)]W-NH2)
8.13

Query pEC50 on KiSS-1 receptor (Rattus norvegicus, UniProt Q924U1) for "CNC(=N)NCCC[C@H](NC(=O)[C@H](CC(C)C)NC(=O)NNC(=O)[C@H](Cc1ccccc1)NC(=O)[C@@H](NC(=O)[C@H](CC(N)=O)NC(=O)[C@H]1CCCN(C(=O)[C@@H](Cc2ccc(O)cc2)NC(C)=O)C1)[C@@H](C)O)C(=O)N[C@@H](Cc1c[nH]c2ccccc12)C(N)=O"
7.35

Query pEC50 on KiSS-1 receptor (Rattus norvegicus, UniProt Q924U1) for "CNC(=N)NCCC[C@H](NC(=O)[C@H](CC(C)C)NC(=O)NNC(=O)[C@H](Cc1ccccc1)NC(=O)[C@@H](NC(=O)[C@H](CC(N)=O)NC(=O)[C@@H]1CCCN1C(=O)[C@@H](Cc1ccc(O)cc1)NC(C)=O)[C@@H](C)O)C(=O)N[C@@H](Cc1c[nH]c2ccccc12)C(N)=O"
8.03

Query pEC50 on KiSS-1 receptor (Rattus norvegicus, UniProt Q924U1) for CNC(=N)NCCC[C@H](NC(=O)[C@H](CC(C)C)NC(=O)NNC(=O)[C@H](Cc1ccccc1)NC(=O)[C@@H](NC(=O)[C@H](CC(N)=O)NC(=O)[C@@H]1CCN1C(=O)[C@@H](Cc1ccc(O)cc1)NC(C)=O)[C@@H](C)O)C(=O)N[C@@H](Cc1c[nH]c2ccccc12)C(N)=O (Ac-[dY][Aze]NTF[azaGly]L[Arg(Me)]W-NH2)
7.80

* * *

Target: KiSS-1 receptor (Homo sapiens, UniProt Q969F8)
Sequence (Q969F8 whole entry): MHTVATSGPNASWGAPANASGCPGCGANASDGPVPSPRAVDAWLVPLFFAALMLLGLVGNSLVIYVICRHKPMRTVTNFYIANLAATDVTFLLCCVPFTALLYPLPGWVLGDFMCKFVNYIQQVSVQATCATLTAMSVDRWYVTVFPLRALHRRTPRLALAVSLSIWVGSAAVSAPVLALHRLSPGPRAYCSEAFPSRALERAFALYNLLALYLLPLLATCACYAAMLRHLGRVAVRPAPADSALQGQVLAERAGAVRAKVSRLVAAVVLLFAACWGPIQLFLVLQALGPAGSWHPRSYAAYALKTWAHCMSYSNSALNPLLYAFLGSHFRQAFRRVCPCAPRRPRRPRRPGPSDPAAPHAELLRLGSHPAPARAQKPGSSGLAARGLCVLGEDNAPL
Test: Agonist activity at human KISS1R expressed in CHO/dhfr cells assessed as increase in intracellular Ca2+ levels measured for 180 secs by Fluo 3-AM dye based FLIPR assay
pEC50: −log10 of the molar value. Where a SMILES comes first, the peptide text is derived from it. [ ]: non-standard residue; d: D form. Phe(3-F) = N[C@@H](Cc1cccc(F)c1)C(=O)O; Arg(Me) = CNC(=N)NCCC[C@H](N)C(=O)O; azaGly = NNC(=O)O
pEC50 vs 9: at or above is yes, below is no.

Decide: pEC50 of CNC(=N)NCCC[C@H](NC(=O)[C@H](CC(C)C)NC(=O)NNC(=O)[C@H](Cc1cccc(F)c1)NC(=O)[C@@H](NC(=O)[C@H](CC(N)=O)NC(=O)[C@H](CCC(=O)O)NC(=O)[C@@H](Cc1ccc(O)cc1)NC(C)=O)[C@@H](C)O)C(=O)N[C@@H](Cc1c[nH]c2ccccc12)C(N)=O (Ac-[dY]ENT[Phe(3-F)][azaGly]L[Arg(Me)]W-NH2) >= 9?
yes

Decide: pEC50 of "CNC(=N)NCCC[C@H](NC(=O)[C@H](CC(C)C)NC(=O)NNC(=O)[C@H](Cc1ccccc1)NC(=O)[C@@H](NC(=O)[C@H](CC(N)=O)NC(=O)[C@@H]1C[C@@H](O)CN1C(=O)[C@@H](Cc1ccc(O)cc1)NC(C)=O)[C@@H](C)O)C(=O)N[C@@H](Cc1c[nH]c2ccccc12)C(N)=O" >= 9?
no

Decide: pEC50 of CNC(=N)NCCC[C@H](NC(=O)[C@H](CC(C)C)NC(=O)NNC(=O)[C@H](Cc1ccccc1)NC(=O)[C@@H](NC(=O)[C@H](CC(N)=O)NC(=O)CNC(=O)[C@@H](Cc1ccc(O)cc1)NC(C)=O)[C@@H](C)O)C(=O)N[C@@H](Cc1c[nH]c2ccccc12)C(N)=O (Ac-[dY]GNTF[azaGly]L[Arg(Me)]W-NH2) >= 9?
no

Decide: pEC50 of CNC(=N)NCCC[C@H](NC(=O)[C@H](CC(C)C)NC(=O)NNC(=O)[C@H](Cc1cccc(F)c1)NC(=O)[C@@H](NC(=O)[C@H](CC(N)=O)NC(=O)[C@H](Cc1c[nH]c2ccccc12)NC(=O)[C@@H](Cc1ccc(O)cc1)NC(C)=O)[C@@H](C)O)C(=O)N[C@@H](Cc1c[nH]c2ccccc12)C(N)=O (Ac-[dY]WNT[Phe(3-F)][azaGly]L[Arg(Me)]W-NH2) >= 9?
yes

Decide: pEC50 of "CNC(=N)NCCC[C@H](NC(=O)[C@H](CC(C)C)NC(=O)NNC(=O)[C@H](Cc1ccccc1)NC(=O)[C@@H](NC(=O)[C@H](CC(N)=O)NC(=O)[C@H]1CCCN1C(=O)[C@@H](Cc1ccc(O)cc1)NC(C)=O)[C@@H](C)O)C(=O)N[C@@H](Cc1c[nH]c2ccccc12)C(N)=O" >= 9?
no

Decide: pEC50 of "CNC(=N)NCCC[C@H](NC(=O)[C@H](CC(C)C)NC(=O)NNC(=O)[C@H](Cc1ccccc1)NC(=O)[C@@H](NC(=O)[C@H](CC(N)=O)NC(=O)[C@@H]1CCCN1C(=O)[C@@H](Cc1ccc(O)cc1)NC(C)=O)[C@@H](C)O)C(=O)N[C@@H](Cc1c[nH]c2ccccc12)C(N)=O" >= 9?
yes

Decide: pEC50 of "CNC(=N)NCCC[C@H](NC(=O)[C@H](CC(C)C)NC(=O)NNC(=O)[C@H](Cc1ccc(F)cc1)NC(=O)[C@@H](NC(=O)[C@H](CC(N)=O)NC(=O)[C@@H](Cc1c[nH]c2ccccc12)NC(=O)[C@@H](Cc1ccc(O)cc1)NC(C)=O)[C@@H](C)O)C(=O)N[C@@H](Cc1c[nH]c2ccccc12)C(N)=O" >= 9?
no
